Target: T1, full-length mouse Notch1 expressed on the cell surface of U-2 OS cells (mouse, UniProt Q01705 19-2531)
T1 construct: whole, on cells; also called murine Notch1
T1 sequence (Q01705 19-2531): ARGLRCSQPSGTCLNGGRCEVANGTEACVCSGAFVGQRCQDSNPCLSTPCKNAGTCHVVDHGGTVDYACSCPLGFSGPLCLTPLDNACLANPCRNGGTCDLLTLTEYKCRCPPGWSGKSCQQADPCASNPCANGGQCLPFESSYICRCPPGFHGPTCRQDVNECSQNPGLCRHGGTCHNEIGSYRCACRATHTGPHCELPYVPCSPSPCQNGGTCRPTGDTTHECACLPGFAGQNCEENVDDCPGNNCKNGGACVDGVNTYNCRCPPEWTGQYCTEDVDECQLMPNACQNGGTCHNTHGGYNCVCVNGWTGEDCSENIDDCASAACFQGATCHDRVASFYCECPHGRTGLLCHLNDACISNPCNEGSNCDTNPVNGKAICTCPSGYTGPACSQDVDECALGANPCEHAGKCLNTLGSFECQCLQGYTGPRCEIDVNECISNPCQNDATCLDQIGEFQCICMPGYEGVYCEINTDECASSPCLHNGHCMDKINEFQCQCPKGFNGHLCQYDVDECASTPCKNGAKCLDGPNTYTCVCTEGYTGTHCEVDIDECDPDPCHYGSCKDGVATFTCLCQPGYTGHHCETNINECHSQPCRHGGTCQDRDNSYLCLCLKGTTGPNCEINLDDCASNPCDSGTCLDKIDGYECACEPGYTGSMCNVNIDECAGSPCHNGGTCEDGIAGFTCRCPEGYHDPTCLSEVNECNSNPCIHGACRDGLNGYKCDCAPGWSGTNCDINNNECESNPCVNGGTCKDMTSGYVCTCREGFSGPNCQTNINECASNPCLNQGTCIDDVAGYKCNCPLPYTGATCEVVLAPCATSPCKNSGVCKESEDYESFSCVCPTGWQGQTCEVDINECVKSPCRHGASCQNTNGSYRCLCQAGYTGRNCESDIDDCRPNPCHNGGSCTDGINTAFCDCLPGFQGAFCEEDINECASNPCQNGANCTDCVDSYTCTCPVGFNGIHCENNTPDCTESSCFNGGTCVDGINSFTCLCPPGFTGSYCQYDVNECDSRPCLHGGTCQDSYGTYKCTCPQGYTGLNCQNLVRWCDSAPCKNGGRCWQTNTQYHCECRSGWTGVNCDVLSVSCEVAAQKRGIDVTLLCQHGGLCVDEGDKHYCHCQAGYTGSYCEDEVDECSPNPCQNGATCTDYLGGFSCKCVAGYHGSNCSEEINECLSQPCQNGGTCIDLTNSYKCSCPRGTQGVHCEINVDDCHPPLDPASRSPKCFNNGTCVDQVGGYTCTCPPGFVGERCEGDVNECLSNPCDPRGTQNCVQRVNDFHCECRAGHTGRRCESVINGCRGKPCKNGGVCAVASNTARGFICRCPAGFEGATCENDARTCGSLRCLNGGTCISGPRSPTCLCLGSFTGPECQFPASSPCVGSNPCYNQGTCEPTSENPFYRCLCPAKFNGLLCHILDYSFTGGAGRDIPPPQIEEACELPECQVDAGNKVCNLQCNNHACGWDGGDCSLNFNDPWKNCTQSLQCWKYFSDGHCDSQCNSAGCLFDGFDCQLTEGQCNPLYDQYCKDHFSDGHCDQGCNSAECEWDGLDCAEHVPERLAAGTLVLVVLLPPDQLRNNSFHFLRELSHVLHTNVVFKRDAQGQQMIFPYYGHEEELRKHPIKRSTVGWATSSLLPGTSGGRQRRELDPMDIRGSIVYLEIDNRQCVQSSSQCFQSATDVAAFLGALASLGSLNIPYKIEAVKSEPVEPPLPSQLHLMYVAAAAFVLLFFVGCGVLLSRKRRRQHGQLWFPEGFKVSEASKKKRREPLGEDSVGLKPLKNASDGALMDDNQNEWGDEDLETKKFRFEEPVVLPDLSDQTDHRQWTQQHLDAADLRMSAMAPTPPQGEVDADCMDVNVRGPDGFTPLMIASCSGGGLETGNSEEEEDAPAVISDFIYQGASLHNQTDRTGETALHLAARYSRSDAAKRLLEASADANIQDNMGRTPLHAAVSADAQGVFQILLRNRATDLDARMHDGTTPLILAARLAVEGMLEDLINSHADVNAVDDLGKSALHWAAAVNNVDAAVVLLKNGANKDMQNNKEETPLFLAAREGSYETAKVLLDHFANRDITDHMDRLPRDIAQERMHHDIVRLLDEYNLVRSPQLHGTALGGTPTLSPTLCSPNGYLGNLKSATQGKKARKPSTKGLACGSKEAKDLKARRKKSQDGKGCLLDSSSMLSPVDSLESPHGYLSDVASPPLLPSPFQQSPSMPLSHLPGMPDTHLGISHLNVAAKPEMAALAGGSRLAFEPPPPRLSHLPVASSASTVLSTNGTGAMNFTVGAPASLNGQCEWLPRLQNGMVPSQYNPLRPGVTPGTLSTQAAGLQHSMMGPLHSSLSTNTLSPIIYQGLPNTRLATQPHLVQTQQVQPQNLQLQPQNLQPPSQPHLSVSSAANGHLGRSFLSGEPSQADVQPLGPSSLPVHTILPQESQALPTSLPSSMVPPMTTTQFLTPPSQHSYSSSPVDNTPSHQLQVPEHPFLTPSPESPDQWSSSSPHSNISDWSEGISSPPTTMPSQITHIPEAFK
Experiment: cell-based ELISA, U-2 OS cells expressing full-length mouse Notch1
result_type: pEC50
pEC50 is a log-scale quantity: -log10 of the concentration expressed in molar.

INSERT INTO measurements (binder, observed_measurement) VALUES
  ('parental rat 438 (antibody, V domains shown, Rat monoclonal IgG from a hybridoma) VH: AVQLVESGGGLVQPGRSLKLSCTASGFTFSSFAMAWVRQAPTKGLEWVASISYGGADTYYRDSVKGRFTISRDNAKSSLYLQMDSLRSEDTSTYYCAKDLPYYGYTPFVMDAWGQGTSVTVSS VL: DIMLTQSPPTLSVTPGETISLSCRASQRINTDLHWYQQKPNESPRVLIKFASQTISGVPSRFSGSGSGTDFTLNINRVEPEDFSVYYCQQSNSWPYTFGAGTKLELK', 9.76),
  ('humanized 438 VH1.1/VL1.9 (antibody, human IgG1, V domains shown) VH: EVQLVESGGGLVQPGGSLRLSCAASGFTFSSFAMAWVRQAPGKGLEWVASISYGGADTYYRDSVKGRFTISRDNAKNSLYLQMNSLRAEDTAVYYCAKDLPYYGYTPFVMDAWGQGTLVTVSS VL: DIMLTQSPSSLSASVGDRVTITCRASQRINTDLHWYQQKPGKAPKVLIKFASQTISGVPSRFSGSGSGTDFTLTISSLQPEDFATYYCQQSNSWPYTFGQGTKLEIK', 9.86);

Ask: Request the reported pEC50 associated with humanized 438 VH1.1/VL1.3 (antibody, human IgG1, V domains shown) VH: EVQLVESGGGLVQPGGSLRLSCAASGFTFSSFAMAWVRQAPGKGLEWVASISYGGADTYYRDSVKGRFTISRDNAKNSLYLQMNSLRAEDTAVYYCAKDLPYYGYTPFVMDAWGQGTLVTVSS VL: DIQLTQSPSSLSASVGDRVTITCRASQRINTDLHWYQQKPGKAPKLLIYFASQTISGVPSRFSGSGSGTDFTLTISSLQPEDFATYYCQQSNSWPYTFGQGTKLEIK
Reply: 10.03
